Reference source for all entries: PubChem BioAssay (EPA / NIEHS)

assayTarget: Retinoic acid receptor RXR-alpha (Homo sapiens)
assayExplanation: OT_NURR1_NURR1RXRa_1440: Odyssey Thera (OT) 24-hour HEK293T Protein Complementation Assay for Nurr1/retinoid X receptor (RXR) (AID 2283386)
Results filed as inconclusive are left out. Active and inactive are the calls of the source. The calls were made as follows: active = hit-call score of the fitted dose curve at least 0.9, where 1 is the maximum; inconclusive = response in the unintended direction; inactive = score below 0.9.
endpointLabel: outcome

INSERT INTO results (compound, endpointresult) VALUES
  ('C1CC2OC2CC1C1CO1 (centres undefined)', 'inactive'),
  ('Cc1ccc(O)c(C)c1', 'inactive'),
  ('CCNc1nc(NC(C)C)nc(SC)n1', 'inactive'),
  ('CC1=C2C[C@H]3[C@@H](CC=C4C[C@@H](O)CC[C@@]43C)[C@@H]2CC[C@]12O[C@@H]1C[C@H](C)CN[C@H]1[C@H]2C', 'inactive'),
  ('c1cc2ccc3cccc4ccc(c1)c2c34', 'inactive'),
  ('Nn1cnnc1', 'inactive'),
  ('Cc1ccccc1[N+](=O)[O-]', 'inactive'),
  ('CCCN(CCC)N=O', 'inactive'),
  ('Cc1cc(O)ccc1Cl', 'inactive'),
  ('O=C(O)C(F)(F)C(F)(F)C(F)(F)C(F)(F)C(F)(F)F', 'inactive'),
  ('COc1ccc(O)c(C(C)(C)C)c1', 'inactive'),
  ('CCOP(=S)(OCC)SCSC(C)(C)C', 'inactive'),
  ('O=NN(c1ccccc1)c1ccccc1', 'inactive'),
  ('Cc1cc(-c2ccc(N)c(C)c2)ccc1N', 'inactive');
